Target of assay: T1, Human Serum Albumin (human, UniProt P02768 25-609)
T1 construct: also called HSA
T1 sequence (P02768 25-609 limits assumed): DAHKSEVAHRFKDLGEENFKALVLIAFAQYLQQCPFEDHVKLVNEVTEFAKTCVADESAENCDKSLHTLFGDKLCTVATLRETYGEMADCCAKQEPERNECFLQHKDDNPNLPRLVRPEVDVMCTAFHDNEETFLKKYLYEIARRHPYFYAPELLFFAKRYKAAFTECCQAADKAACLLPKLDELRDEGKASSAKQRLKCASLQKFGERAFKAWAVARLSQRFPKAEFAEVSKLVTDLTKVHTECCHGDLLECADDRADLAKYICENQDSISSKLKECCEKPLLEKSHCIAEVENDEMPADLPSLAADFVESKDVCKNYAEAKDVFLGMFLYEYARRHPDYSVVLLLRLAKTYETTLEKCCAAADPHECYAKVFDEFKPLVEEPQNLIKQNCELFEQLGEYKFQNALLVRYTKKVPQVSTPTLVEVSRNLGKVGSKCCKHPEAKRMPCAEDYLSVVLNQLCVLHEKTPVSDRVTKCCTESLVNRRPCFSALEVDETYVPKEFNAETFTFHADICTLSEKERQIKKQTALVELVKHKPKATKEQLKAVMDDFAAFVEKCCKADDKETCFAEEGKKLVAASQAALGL
Experiment notes: SPR Biacore T200, HSA on CM5 chip, ADAPT injected, 1:1 fit
Experimental endpoint: log10(Kd) (log10 of the value in nM)
Hi team, quick reminder: these entries are log10 of Kd (nM).

LKVAKIIAFHELWEYGVSDFYLSLIDKAKTVEGVEALKLHILAALP (designed binder) [ADAPT variant CRP_38] : 1.11

Now examine the next entry.
**Query** Reported log10(Kd), binder LTVAKFWALTELQEYGVSDFYANLITKAKTVEGVEALKLHILAALP (designed binder) [ADAPT variant PSA_01] : ____
**Result** 0.04
